conditions: human gut metagenome, 24 h, 2 µM; also: call rule not given here
Endpoint name: Bacterial Biotransformation

Compound | Value measured
COC(=O)[C@H](c1ccccc1Cl)N1CCc2sccc2C1.O=S(=O)(O)O [CLOPIDOGREL BISULFATE] | Compound metabolized
CN(CCOc1ccc(CC2SC(=O)NC2=O)cc1)c1ccccn1.O=C(O)/C=C\C(=O)O (centres undefined) [ROSIGLITAZONE MALEATE] | Compound NOT metabolized
CCOc1ccccc1OCCN[C@H](C)Cc1ccc(OC)c(S(N)(=O)=O)c1.Cl [TAMSULOSIN HYDROCHLORIDE] | Compound NOT metabolized
CC(C)c1c(CN(C)C(C)Cc2ccccc2)n(C)n(-c2ccccc2)c1=O (centres undefined) | Compound metabolized

----------
experiment: The drug is tested on WLS-077 corresponding to human gut metagenome with ENA study accession number: PRJEB37062 and ENA sample accession number: ERS12561750 for biotransformation under anaerobic condition. The drug concentrations were measured over 9 timepoints collected between 0 and 24 hours of incubation by liquid-chromatography-coupled mass spectrometry (LC–MS); details: 2 µM

Compound | Bacterial Biotransformation
Cc1cc2c(s1)Nc1ccccc1N=C2N1CCN(C)CC1 | Compound metabolized
CCN(CC)C(=O)C1(c2ccccc2)CC1CN (stereo not drawn) | Compound NOT metabolized
COC(=O)[C@H](c1ccccc1Cl)N1CCc2sccc2C1.O=S(=O)(O)O [CLOPIDOGREL BISULFATE] | Compound metabolized
CC(C)(C)NCC(O)COc1cccc2c1CC(O)C(O)C2 (stereo not drawn) | Compound metabolized
CN1CCC(=C2c3ccccc3CC(=O)c3sccc32)CC1.O=C(O)/C=C/C(=O)O [KETOTIFEN FUMARATE] | Compound NOT metabolized
COc1ccc(C(CN(C)C)C2(O)CCCCC2)cc1 (stereo not drawn) | Compound NOT metabolized
CN(C)C(=O)Oc1cccc([N+](C)(C)C)c1.[Br-] [NEOSTIGMINE BROMIDE] | Compound NOT metabolized
CC(C)(C)N.CCC[C@H](N[C@@H](C)C(=O)N1[C@H](C(=O)O)C[C@@H]2CCCC[C@@H]21)C(=O)OCC | Compound NOT metabolized
CCc1cccc2c3c([nH]c12)C(CC)(CC(=O)O)OCC3 (stereo not drawn) | Compound NOT metabolized
CC12CC3CC(C)(C1)CC(N)(C3)C2 [MEMANTINE] | Compound NOT metabolized
CCOc1ccccc1OCCN[C@H](C)Cc1ccc(OC)c(S(N)(=O)=O)c1.Cl [TAMSULOSIN HYDROCHLORIDE] | Compound NOT metabolized
C[C@]12CCC(=O)C=C1[C@@H]1C[C@@H]1[C@H]1[C@@H]3[C@@H]4C[C@@H]4[C@@]4(CCC(=O)O4)[C@@]3(C)CC[C@@H]12 | Compound metabolized
CCOC(=O)[C@H](CCc1ccccc1)N[C@@H](C)C(=O)N1Cc2ccccc2C[C@H]1C(=O)O | Compound metabolized
CC(N)C12CC3CC(CC(C3)C1)C2 (stereo not drawn) | Compound NOT metabolized
CNNCc1ccc(C(=O)NC(C)C)cc1 | Compound NOT metabolized
CC(C)(C)NC[C@H](O)COc1nsnc1N1CCOCC1.O=C(O)/C=C\C(=O)O [TIMOLOL MALEATE] | Compound NOT metabolized
CC(C)C[C@H]1C(=O)N2CCC[C@H]2[C@]2(O)O[C@](NC(=O)[C@@H]3C=C4c5cccc6[nH]c(Br)c(c56)C[C@H]4N(C)C3)(C(C)C)C(=O)N12.CS(=O)(=O)O [BROMOCRIPTINE MESYLATE] | Compound metabolized
CC(C)c1c(CN(C)C(C)Cc2ccccc2)n(C)n(-c2ccccc2)c1=O (stereo not drawn) | Compound metabolized
N[C@@H](Cc1ccc(N(CCCl)CCCl)cc1)C(=O)O | Compound metabolized
COc1cc(NC(C)CCCN)c2ncccc2c1.O=P(O)(O)O.O=P(O)(O)O (stereo not drawn) [PRIMAQUINE PHOSPHATE] | Compound NOT metabolized
CC(=O)OCC(CCn1cnc2cnc(N)nc21)COC(C)=O | Compound metabolized
CCN(CC)CCNC(=O)c1ccc(NC(C)=O)cc1 [ACECAINIDE] | Compound NOT metabolized
C=CC[C@@H]1/C=C(\C)C[C@H](C)C[C@H](OC)[C@H]2O[C@@](O)(C(=O)C(=O)N3CCCC[C@H]3C(=O)O[C@H](/C(C)=C/[C@@H]3CC[C@@H](O)[C@H](OC)C3)[C@H](C)[C@@H](O)CC1=O)[C@H](C)C[C@@H]2OC.O | Compound metabolized
CN1CCC(OC(c2ccccc2)c2ccccc2)CC1 | Compound NOT metabolized
CCOC(=O)[C@H](CCc1ccccc1)N[C@@H](C)C(=O)N1CCC[C@H]1C(=O)O.O=C(O)/C=C\C(=O)O [ENALAPRIL MALEATE] | Compound NOT metabolized
CN1CCN(C2=Nc3ccccc3Oc3ccc(Cl)cc32)CC1.O=C(O)CCC(=O)O [LOXAPINE SUCCINATE] | Compound NOT metabolized
CC(=O)CCCCn1c(=O)c2c(ncn2C)n(C)c1=O | Compound NOT metabolized
CCCN1C[C@H](CSC)C[C@@H]2c3cccc4[nH]cc(c34)C[C@H]21.CS(=O)(=O)O [PERGOLIDE MESYLATE] | Compound NOT metabolized
CC[C@@]1(O)C(=O)OCc2c1cc1n(c2=O)Cc2cc3c(CN(C)C)c(O)ccc3nc2-1 | Compound NOT metabolized
CN1CCN2c3ccccc3Cc3ccccc3C2C1 (stereo not drawn) | Compound NOT metabolized
CCN1CCCC1CNC(=O)c1cc(S(=O)(=O)CC)c(N)cc1OC (stereo not drawn) [AMISULPRIDE] | Compound NOT metabolized
Nc1nnc(-c2cccc(Cl)c2Cl)c(N)n1 | Compound NOT metabolized
CCc1oc2ccccc2c1C(=O)c1cc(Br)c(O)c(Br)c1 | Compound metabolized
